Collected IC50 values appear next to each entry.
SYSTEM TESTED: Kv1.3 channels (Mus musculus)
Sequence (P16390 whole entry): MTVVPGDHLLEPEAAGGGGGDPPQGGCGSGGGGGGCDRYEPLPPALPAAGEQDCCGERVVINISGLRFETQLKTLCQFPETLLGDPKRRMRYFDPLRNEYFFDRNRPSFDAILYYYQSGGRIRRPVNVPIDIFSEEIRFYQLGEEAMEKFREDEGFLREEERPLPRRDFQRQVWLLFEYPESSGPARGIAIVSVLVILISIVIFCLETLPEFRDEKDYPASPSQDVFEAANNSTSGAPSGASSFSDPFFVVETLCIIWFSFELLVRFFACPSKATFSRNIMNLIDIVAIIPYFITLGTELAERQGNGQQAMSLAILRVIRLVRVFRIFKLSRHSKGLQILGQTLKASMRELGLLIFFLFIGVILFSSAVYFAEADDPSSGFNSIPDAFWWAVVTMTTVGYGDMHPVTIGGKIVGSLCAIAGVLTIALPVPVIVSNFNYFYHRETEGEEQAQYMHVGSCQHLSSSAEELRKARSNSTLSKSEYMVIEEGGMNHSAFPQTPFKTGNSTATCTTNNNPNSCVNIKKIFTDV
TEST PROTOCOL: Kv1.3 blockade, manual whole-cell patch-clamp
MEASUREMENT TYPE: IC50

COMPOUND	OBSERVED RESULT
OC1CCN(CCCc2ccccc2)CC1	> 100 µM
N#CC(CCN1CCCC(O)C1)(c1ccccc1)c1ccccc1 (centres unmarked)	> 100 µM
